Provenance of the data: patent EP0181129B1

molecules and their reported pIC50
- Measured On: adenosine A2 receptor (Rattus norvegicus)
pIC50: −log10 of the molar value.

{"Molecule": "CSC[C@H]1O[C@@H](n2cnc3c(NC4CCc5ccccc54)ncnc32)[C@H](O)[C@@H]1O (stereo partly shown)", "pIC50": 4.24}
{"Molecule": "C[C@H]1O[C@@H](n2cnc3c(NC4CCCC4)ncnc32)[C@H](O)[C@@H]1O [Example 5, N^6-[Cyclopentyl]-5'-deoxyadenosine]", "pIC50": 4.76}
{"Molecule": "C[C@H](Cc1ccccc1)Nc1ncnc2c1ncn2[C@@H]1O[C@H](C)[C@@H](O)[C@H]1O", "pIC50": 5.24}
{"Molecule": "CSC[C@H]1O[C@@H](n2cnc3c(NC4CCCCC4)ncnc32)[C@H](O)[C@@H]1O", "pIC50": 5.13}
{"Molecule": "C[C@H](Cc1ccccc1)Nc1ncnc2c1ncn2[C@@H]1O[C@H](CCl)[C@@H](O)[C@H]1O", "pIC50": 5.80}
{"Molecule": "C[C@@H](Cc1ccccc1)Nc1ncnc2c1ncn2[C@@H]1O[C@H](CCl)[C@@H](O)[C@H]1O", "pIC50": 5.10}
{"Molecule": "CSC[C@H]1O[C@@H](n2cnc3c(N[C@H](C)Cc4ccccc4)ncnc32)[C@H](O)[C@@H]1O", "pIC50": 5.20}

----------
molecules and their reported pIC50
- Measured On: adenosine A1 receptor (Rattus norvegicus)
- Construct: brain minus cerebellum and brainstem from male Long Evans rats (150-200 g) was homogenized; from tissue; host or cells: rat whole brain minus cerebellum and brainstem, membrane homogenate
- Sequence (P25099 whole entry): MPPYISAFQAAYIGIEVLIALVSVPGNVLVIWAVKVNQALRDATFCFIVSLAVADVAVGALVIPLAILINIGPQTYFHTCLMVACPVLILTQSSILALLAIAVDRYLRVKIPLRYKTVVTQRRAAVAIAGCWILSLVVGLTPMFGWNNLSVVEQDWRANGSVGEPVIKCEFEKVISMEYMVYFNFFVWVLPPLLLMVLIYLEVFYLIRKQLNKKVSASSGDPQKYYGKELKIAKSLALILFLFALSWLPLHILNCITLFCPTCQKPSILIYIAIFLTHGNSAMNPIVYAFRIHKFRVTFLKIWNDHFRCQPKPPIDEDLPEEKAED
- Test Protocol: Adenosine Receptor Binding - A1 Receptor Affinity (RBA1), [3H]-CHA displacement
- Assay Context: Receptor Binding RBA—1, 1.0 nM [3H]-CHA, rat whole brain membranes, one hour at 25°C
pIC50: −log10 of the molar value.
Quantity Measured: pIC50

{"Molecule": "CSC[C@H]1O[C@@H](n2cnc3c(NC4CCc5ccccc54)ncnc32)[C@H](O)[C@@H]1O (some centres unmarked)", "Measured On": "adenosine A1 receptor (Rattus norvegicus)", "Quantity Measured": "pIC50", "Measured Number": 5.83}
{"Molecule": "CSC[C@H]1O[C@@H](n2cnc3c(N[C@@H](C)Cc4ccccc4)ncnc32)[C@H](O)[C@@H]1O", "Measured On": "adenosine A1 receptor (Rattus norvegicus)", "Quantity Measured": "pIC50", "Measured Number": 6.15}
{"Molecule": "CSC[C@H]1O[C@@H](n2cnc3c(NCC(c4ccccc4)c4ccccc4)ncnc32)[C@H](O)[C@@H]1O", "Measured On": "adenosine A1 receptor (Rattus norvegicus)", "Quantity Measured": "pIC50", "Measured Number": 6.18}
{"Molecule": "CSC[C@H]1O[C@@H](n2cnc3c(N[C@H](C)Cc4ccccc4)ncnc32)[C@H](O)[C@@H]1O", "Measured On": "adenosine A1 receptor (Rattus norvegicus)", "Quantity Measured": "pIC50", "Measured Number": 7.29}
{"Molecule": "CSC[C@H]1O[C@@H](n2cnc3c(NC4CCCCC4)ncnc32)[C@H](O)[C@@H]1O", "Measured On": "adenosine A1 receptor (Rattus norvegicus)", "Quantity Measured": "pIC50", "Measured Number": 8.05}

----------
- Measured On: adenosine A2 receptor (Rattus norvegicus, UniProt P30543)
- Sequence (P30543 whole entry): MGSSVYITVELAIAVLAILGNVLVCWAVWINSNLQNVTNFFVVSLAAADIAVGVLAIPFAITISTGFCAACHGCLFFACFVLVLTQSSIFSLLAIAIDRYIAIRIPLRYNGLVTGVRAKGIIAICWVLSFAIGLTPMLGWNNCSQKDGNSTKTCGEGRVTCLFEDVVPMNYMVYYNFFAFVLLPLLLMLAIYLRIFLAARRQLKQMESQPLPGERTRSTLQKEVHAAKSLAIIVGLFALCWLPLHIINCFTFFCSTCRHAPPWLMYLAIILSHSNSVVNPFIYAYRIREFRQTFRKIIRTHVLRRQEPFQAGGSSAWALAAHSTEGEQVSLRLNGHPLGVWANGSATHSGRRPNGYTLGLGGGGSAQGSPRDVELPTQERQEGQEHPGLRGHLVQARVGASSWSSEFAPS
Lab note: cut-off is 9 µM. Strictly less in IC50 is yes (1). Exactly 9 µM or more is no (0).

{"Compound": "CSC[C@H]1O[C@@H](n2cnc3c(NCC(c4ccccc4)c4ccccc4)ncnc32)[C@H](O)[C@@H]1O", "Label Class": "yes (1)"}
{"Compound": "CSC[C@H]1O[C@@H](n2cnc3c(N[C@@H](C)Cc4ccccc4)ncnc32)[C@H](O)[C@@H]1O", "Label Class": "no (0)"}
{"Compound": "C[C@H]1O[C@@H](n2cnc3c(NCC(c4ccccc4)c4ccccc4)ncnc32)[C@H](O)[C@@H]1O", "Label Class": "yes (1)"}
{"Compound": "CSC[C@H]1O[C@@H](n2cnc3c(NC4CCCC4)ncnc32)[C@H](O)[C@@H]1O", "Label Class": "yes (1)"}
{"Compound": "C[C@H]1O[C@@H](n2cnc3c(NC4CCCCC4)ncnc32)[C@H](O)[C@@H]1O [Example 6, N^6-[Cyclohexyl]-5'-deoxyadenosine]", "Label Class": "no (0)"}
{"Compound": "O[C@@H]1[C@H](O)[C@@H](CCl)O[C@H]1n1cnc2c(NC3CCCCC3)ncnc21", "Label Class": "yes (1)"}
{"Compound": "O[C@@H]1[C@H](O)[C@@H](CCl)O[C@H]1n1cnc2c(NC3CCc4ccccc43)ncnc21 (stereo partly drawn) [Example 23]", "Label Class": "yes (1)"}
{"Compound": "O[C@@H]1[C@H](O)[C@@H](CCl)O[C@H]1n1cnc2c(NC3CCCC3)ncnc21", "Label Class": "yes (1)"}
{"Compound": "C[C@H]1O[C@@H](n2cnc3c(NCc4cccc5ccccc45)ncnc32)[C@H](O)[C@@H]1O", "Label Class": "yes (1)"}
{"Compound": "C[C@H]1O[C@@H](n2cnc3c(NC4CCCc5ccccc54)ncnc32)[C@H](O)[C@@H]1O (stereo partly drawn)", "Label Class": "no (0)"}
{"Compound": "C[C@@H](Cc1ccccc1)Nc1ncnc2c1ncn2[C@@H]1O[C@H](C)[C@@H](O)[C@H]1O", "Label Class": "no (0)"}
{"Compound": "O[C@@H]1[C@H](O)[C@@H](CCl)O[C@H]1n1cnc2c(NC3CCc4ccccc43)ncnc21 (stereo partly drawn) [Example 14]", "Label Class": "yes (1)"}
